From: patent US20250230155A1

Can you tell me pEC50 for the items I'm about to list?
molecular target: human mAChR M4 (Homo sapiens, UniProt P08173); construct: expressed in transfected cells; assay: mAChR M4 cell-based functional assay (calcium mobilization, CHO-K1 hM4-Gqi5 cells); details: positive allosteric modulator activity, increase in the EC20 acetylcholine response, CHO-K1 hM4-Gqi5 cells; read-out: Human M4 EC50
Sequence (P08173 whole entry): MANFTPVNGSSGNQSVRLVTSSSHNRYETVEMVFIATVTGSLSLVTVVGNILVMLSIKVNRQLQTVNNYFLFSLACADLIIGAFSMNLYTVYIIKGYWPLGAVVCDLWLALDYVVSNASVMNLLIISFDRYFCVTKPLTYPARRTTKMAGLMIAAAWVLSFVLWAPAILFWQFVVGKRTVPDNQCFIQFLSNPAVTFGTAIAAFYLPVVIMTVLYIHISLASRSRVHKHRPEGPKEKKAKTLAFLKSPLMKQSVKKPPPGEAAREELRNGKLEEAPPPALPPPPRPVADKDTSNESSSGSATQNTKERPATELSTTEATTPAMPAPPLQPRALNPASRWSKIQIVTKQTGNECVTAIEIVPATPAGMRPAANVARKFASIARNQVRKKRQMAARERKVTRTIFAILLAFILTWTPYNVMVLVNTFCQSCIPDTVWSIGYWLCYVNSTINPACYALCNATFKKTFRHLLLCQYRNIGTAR
Friendly reminder that pEC50 comes from taking -log10 of the concentration in mol/L.

-- ask Item Cc1ncc(-c2cnc3c(c2)CN(c2nnc(C#N)cc2C)CC3)s1 [Example 390] has what recorded pEC50?
-- reply 6.36

-- ask Item Cc1cc(C#N)cnc1N1CCc2ncc(-c3cc(F)cc(F)c3C)cc2C1 [Example 597] has what recorded pEC50?
-- reply 5.54

-- ask Item Cc1nc(Cl)c(C)c(N2CCc3ncc(Nc4c(F)cccc4F)cc3C2)n1 [compound 89] has what recorded pEC50?
-- reply 6.15

-- ask Item Cc1ccc(Nc2cnc3c(c2)CN(c2ncc(C#N)cc2C)CC3)c(F)n1 [compound 132] has what recorded pEC50?
-- reply 6.63

-- ask Item Cc1cc(C#N)cnc1N1CCc2ncc(N3CCCn4nccc43)cc2C1 [Example 314] has what recorded pEC50?
-- reply 7.59

-- ask Item Cc1cc(C#N)nnc1N1CCc2ncc(N3CCCn4nc(C(C)(C)C)cc43)cc2C1 [Example 418] has what recorded pEC50?
-- reply 6.29

-- ask Item Cc1cc(C#N)cnc1N1CCc2ncc(N3CCCn4nc(C(F)(F)F)cc43)cc2C1 [Example 412] has what recorded pEC50?
-- reply 6.51

-- ask Item Cc1nc(C)c(C)c(N2CCc3ncc(-c4ccc(-n5ccnc5)nc4)cc3C2)n1 [compound 232] has what recorded pEC50?
-- reply 6.58

-- ask Item Cc1c(C#N)nnc(N2CCc3ncc(-c4ccc(F)nc4)cc3C2)c1C [Example 334] has what recorded pEC50?
-- reply 6.24

-- ask Item COc1ccc(Br)cc1CNC(=O)c1cnc(N2CCc3ncccc3C2)c(C)c1 [compound 141] has what recorded pEC50?
-- reply 5.85

-- ask Item Cc1cc(C#N)cnc1N1CCc2ncc(N3CCC(C(F)(F)F)n4nccc43)cc2C1 (centres unmarked) [Example 359] has what recorded pEC50?
-- reply 6.33

-- ask Item Cc1cc(C(=O)NCc2ccncc2)nnc1N1CCc2ncc(N3CCCn4nccc43)cc2C1 [Example 490] has what recorded pEC50?
-- reply 7.80

-- ask Item Cc1cc2n(n1)CCCN2c1cnc2c(c1)CN(c1nnc(C#N)cc1C)CC2 [Example 382] has what recorded pEC50?
-- reply 7.13

-- ask Item Cc1cc(C(=O)NC2(C#N)CC2)nnc1N1CCc2ncc(N3CCCn4nccc43)cc2C1 [Example 525] has what recorded pEC50?
-- reply 7.96

-- ask Item Cc1nc(C)c(C)c(N2CCc3ncc(Oc4ccccc4F)cc3C2)n1 [compound 260] has what recorded pEC50?
-- reply 6.81

-- ask Item Cc1nc(Cl)c(C)c(N2CCc3ncc(-c4ccc(N(C)C)nc4)cc3C2)n1 [compound 220] has what recorded pEC50?
-- reply 6.29

-- ask Item Cc1c(C#N)nnc(N2CCc3ncc(-c4ccns4)cc3C2)c1C [compound 292] has what recorded pEC50?
-- reply 6.79

-- ask Item Cc1c(C(=O)NCc2cncs2)nnc(N2CCc3ncccc3C2)c1C [compound 138] has what recorded pEC50?
-- reply 5.95

-- ask Item Cc1cc(C#N)cnc1N1CCc2ncc(Oc3cccc(F)c3F)cc2C1 [Example 350] has what recorded pEC50?
-- reply 6.26

-- ask Item Cc1c(Cl)nc(C(F)(F)F)nc1N1CCc2ncc(-c3ccc(N(C)C)nc3)cc2C1 [compound 246] has what recorded pEC50?
-- reply 5.08

-- ask Item COc1cccc2cc(CNC(=O)c3cnc(N4CCc5ncccc5C4)c(C)c3)oc12 [compound 162] has what recorded pEC50?
-- reply 5.47

-- ask Item Cc1nc(C)c(C)c(N2CCc3ncc(-c4ccc(N5CCN(C)CC5)nc4)cc3C2)n1 [compound 233] has what recorded pEC50?
-- reply 6.44

-- ask Item Fc1ncccc1Nc1cnc2c(c1)CN(c1nc(Cl)nc3c1COC3)CC2 [compound 289] has what recorded pEC50?
-- reply 6.04

-- ask Item Cc1nc(C)c(C)c(N2CCc3ncc(-c4ccc(N5CCCC5)nc4)cc3C2)n1 [compound 231] has what recorded pEC50?
-- reply 6.18

-- ask Item Cc1noc(C)c1-c1cnc2c(c1)CN(c1nnc(C#N)c(C)c1C)CC2 [Example 297] has what recorded pEC50?
-- reply 6.57

-- ask Item Cc1c(C#N)nnc(N2CCc3ncc(-c4ccnnc4)cc3C2)c1C [compound 48] has what recorded pEC50?
-- reply 5.74

-- ask Item Cc1cc(C#N)cnc1N1CCc2ncc(N3CCCc4ncccc43)cc2C1 [Example 362] has what recorded pEC50?
-- reply 7.12

-- ask Item Cc1c(C#N)nnc(N2CCc3ncc(-c4ccnc(Cl)c4F)cc3C2)c1C [compound 73] has what recorded pEC50?
-- reply 6.03

-- ask Item Cc1nc(Cl)c(C)c(N2CCc3ncc(-c4sc(C)nc4C)cc3C2)n1 [compound 198] has what recorded pEC50?
-- reply 6.86

-- ask Item Cc1c(C(=O)NCc2ccncc2)nnc(N2CCc3ncc(Nc4ccccc4F)cc3C2)c1C [compound 190] has what recorded pEC50?
-- reply 6.87

-- ask Item Cc1cc(C(=O)N2CCOCC2)nnc1N1CCc2ncc(CC(F)(F)F)cc2C1 [Example 587] has what recorded pEC50?
-- reply 5.18

-- ask Item Cc1c(C#N)nnc(N2CCc3ncc(N4CCCn5nccc54)cc3C2)c1C [Example 342] has what recorded pEC50?
-- reply 7.19

-- ask Item Cc1c(Cl)nc(C(F)(F)F)nc1N1CCc2ncc(C(F)(F)F)cc2C1 [compound 237] has what recorded pEC50?
-- reply 5.53

-- ask Item Cc1nn(C)cc1-c1cnc2c(c1)CN(c1ncc(C(N)=O)cc1C(F)(F)F)CC2 [Example 487] has what recorded pEC50?
-- reply 5.54

-- ask Item Cc1cc(C(=O)N2CCCC2)nnc1N1CCc2ncc(CC(F)(F)F)cc2C1 [Example 582] has what recorded pEC50?
-- reply 5.72
